Some compounds, each annotated with its measured % Inhibition (FS).
- ASSAY TARGET: β-secretase (BACE) (Homo sapiens)
- Construct: purchased Panvera
- Sequence (P56817 46-501): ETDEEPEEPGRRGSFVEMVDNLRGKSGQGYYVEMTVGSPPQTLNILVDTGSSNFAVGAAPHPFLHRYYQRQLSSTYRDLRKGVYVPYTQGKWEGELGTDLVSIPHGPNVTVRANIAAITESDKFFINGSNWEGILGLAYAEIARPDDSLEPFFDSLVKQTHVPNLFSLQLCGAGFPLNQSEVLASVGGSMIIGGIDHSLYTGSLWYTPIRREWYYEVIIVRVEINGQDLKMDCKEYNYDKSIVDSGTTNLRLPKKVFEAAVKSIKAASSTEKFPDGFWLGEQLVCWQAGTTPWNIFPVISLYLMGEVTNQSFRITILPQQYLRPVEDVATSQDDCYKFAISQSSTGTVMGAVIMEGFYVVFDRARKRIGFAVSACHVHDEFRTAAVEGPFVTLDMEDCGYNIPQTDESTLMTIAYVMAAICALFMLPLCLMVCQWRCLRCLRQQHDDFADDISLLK
- PROTOCOL DESCRIPTION: BACE FS1 % Inhibition Assay
- Assay type: biochemical
- CONDITION INFO: 0.3 μM test compound

COMPOUND	% Inhibition (FS)
COc1ccccc1-c1ccc2c(c1)CN(CCNC(=O)CCCN)C(N)=N2	<30%
CC(C)[C@@H](CNC(=O)C1CCCCC1)N1Cc2cc(Oc3ccccc3)ccc2N=C1N	<30%
CC(C)CCC(=O)N1CCCC(N2Cc3cc(Oc4ccccc4)ccc3N=C2N)C1 (centres unmarked)	36%
CCCC=Cc1ccc2c(c1)CN(CCNC(=O)Cc1ccccc1)C(N)=N2	<30%
CC(C)(C)C(=O)NCCN1Cc2cc(-c3ccncc3)ccc2N=C1N	<30%
CCCCCCCCC(CCC(=O)NC1CCCCCC1)N1Cc2cc(Oc3ccccc3)ccc2N=C1N (centres unmarked)	<30%
NC1=Nc2ccc(-c3cncnc3)cc2CN1CCNC(=O)C1CCCCC1	<30%
NC1=Nc2ccc(-c3cccc(CO)c3)cc2CN1CCNC(=O)Cc1ccccc1	<30%
NC1=Nc2ccc(-c3ccccc3Cl)cc2CN1CCNC(=O)C1CCCC1	72%
CCCC(=O)NCCN1Cc2cc(-c3cncnc3)ccc2N=C1N	<30%
CN(C(=O)CCC(C1CCCCC1)N1Cc2cc(Oc3ccccc3)ccc2N=C1N)C1CCOCC1 (centres unmarked)	<30%
NC1=Nc2ccc(-c3ccccc3F)cc2CN1CCNC(=O)C12CC3CC(CC(C3)C1)C2	46%
Cc1ccccc1-c1ccc2c(c1)CN(CCNC(=O)C(C)(C)C)C(N)=N2	63%
CN(C(=O)c1cccc(CN2Cc3cc(Oc4ccccc4-c4ccccc4)ccc3N=C2N)c1)C1CCCCC1	<30%
CN(C(=O)CCC(C1CCCCC1)N1Cc2cc(Oc3ccccc3)ccc2N=C1N)C1CCC(O)CC1 (centres unmarked)	<30%
CCCC(CCC)C(=O)N1CCCC(N2Cc3cc(Oc4ccccc4)ccc3N=C2N)C1 (centres unmarked)	<30%
CC(C)(C)OC(=O)NCc1cccc(CN2Cc3cc(Oc4ccccc4)ccc3N=C2N)c1	<30%
CCCC=Cc1ccc2c(c1)CN(CCNC(=O)c1ccc(NC(C)=O)cc1)C(N)=N2	<30%
CN(C(=O)c1cccc(CN2Cc3cc(Oc4ccccc4C(=O)N4CCCC4)ccc3N=C2N)c1)C1CCCCC1	<30%
Cc1cc(C)cc(Sc2ccc3c(c2)CN(Cc2cccc(C(=O)N(C)C4CCCCC4)c2)C(N)=N3)c1	<30%
Cc1cc(C(=O)NCCN2Cc3cc(-c4cccc(C(F)(F)F)c4)ccc3N=C2N)c(C)o1	<30%
COc1ccccc1-c1cc2c(cc1F)CN(CCC(=O)NC1C3CC4CC(C3)CC1C4)C(N)=N2 (centres unmarked)	<30%
NC1=Nc2ccc(Oc3ccccc3)cc2CN1C(CNC(=O)CC1CCCC1)C1CCCCC1 (centres unmarked)	74%
NC1=Nc2ccc(Oc3ccccc3)cc2CN1Cc1cccc(C(=O)N2CCCCC2)c1	<30%
NC1=Nc2ccc(-c3ccc(Cl)cc3)cc2CN1CCNC(=O)C1CCCCC1	<30%
CCCc1cccc(C)c1Oc1ccc2c(c1)CN(Cc1cccc(C(=O)N(C)C3CCCCC3)c1)C(N)=N2	<30%
CCCCCC1CC2(C(=O)NCCN3Cc4cc(Oc5ccccc5)ccc4N=C3N)CCC1CC2 (centres unmarked)	<30%
NC1=Nc2ccc(Oc3ccccc3)cc2CN1C1CCCN(C(=O)C2CCCCC2)C1 (centres unmarked)	<30%
Cc1cccc(Sc2ccc3c(c2)CN(Cc2cccc(C(=O)N(C)C4CCCCC4)c2)C(N)=N3)c1	43%
COc1ccccc1-c1ccc2c(c1)CN(C(CCC(=O)N(C)C1CCCCC1)C1CCCCC1)C(N)=N2 (centres unmarked)	86%
CN(C(=O)c1cccc(CN2Cc3cc(-c4ccc5[nH]ccc5c4)ccc3N=C2N)c1)C1CCCCC1	<30%
CCCCCOc1ccc2c(c1)CN(Cc1cccc(C(=O)N(C)C3CCCCC3)c1)C(N)=N2	<30%
